- Tested target: c-Src SH2;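 further: peptide library displayed on the E. coli surface as eCPX fusions, selected cells deep-sequenced, score is each peptide's frequency after selection divided by its frequency in the input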
- Procedure text: SH2 binding enrichment of the phosphorylated peptide, bacterial display (enrichment ratio); higher = better substrate or ligand; peptides without Tyr show the background
Measurement name: SH2 binding enrichment
Reply: number alone, nothing else.

// solved cases for SH2 binding enrichment follow
{"Biopolymer sequence": "QVMDGYPIPIG [MMP14_Y353_M355I]", "Measurement name": "SH2 binding enrichment", "Readout number": 0.5}
{"Biopolymer sequence": "ETDPRYFDEEF [AKT1_Y437_T435P]", "Measurement name": "SH2 binding enrichment", "Readout number": 0.507}
{"Biopolymer sequence": "FASALYGQRRS [FGF11_Y162_R163G_YF]", "Measurement name": "SH2 binding enrichment", "Readout number": 0.511}
{"Biopolymer sequence": "ASNFNYFYHRE [KCNA1_Y413_V408A]", "Measurement name": "SH2 binding enrichment", "Readout number": 0.697}

Incoming: I have this sequence here, VPVNGYQPVPA [ROR2_Y824] , and I need its recorded SH2 binding enrichment.
Outgoing: 0.691
